- System: FES;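 also: KINOMEscan kinase panel screen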
- Condition Summary: concentration: 1 μM,replicates: in singlicate; n = 1
Endpoint Name: %Inh (%)
Write down the numeric answer in % and omit the unit.

Exercise: Fill blank: measured %Inh of the molecule CN1CCN(CCCNc2nccc(-c3c(-c4ccc(F)cc4)nn4cc(C(N)=O)ccc34)n2)CC1 is ____.
Solution: 0

Exercise: Here is the next molecule: COc1cccc(C2=C(Nc3cccc(Cl)c3)C(=O)NC2=O)c1
Solution: 0

Exercise: # iterate: O=C(NOCC1CC1)c1cc(Br)c(F)c(F)c1Nc1ccc(I)cc1Cl
Solution: 0

Exercise: Lookup CSc1nccc(-c2c(-c3ccc(F)cc3)ncn2CCCN2CCOCC2)n1.Cl
Solution: 3

Exercise: Entry Cn1cc(-c2cccc3c(N)c(C(N)=O)nnc23)cn1 please
Solution: 8

Exercise: Record: CN(c1cccc(CNc2nc(Nc3ccc4c(c3)CC(=O)N4)ncc2C(F)(F)F)c1)S(C)(=O)=O
Solution: 62

Exercise: Now consider C[C@@H]1CCN(C(=O)N2CCCC2)C[C@@H]1N(C)c1ncnc2[nH]ccc12 .
Solution: 34

Exercise: Next up: CCNCC(Cc1ccccc1)NC(=O)c1cc(Br)c(-c2ccnc3[nH]ccc23)s1.Cl.Cl (stereo not drawn)
Solution: 0

Exercise: Note, next up: Cc1cccc2c(-c3ccncc3)c(-c3ccc(F)cc3)nn12.Cl
Solution: 0
